FYI, the data here is from ChEMBL document CHEMBL1201862.

system: COLO 205; assay: NCI tumour cell line growth inhibition, 48 h
Calls of active or inactive are those of the source. No stated cut-off is given here; in the data, active = GI50 up to about 1.1 µM and inactive = higher.
Reported GI50 is given for each of the following compounds.

COc1cc(CSc2ccc(O)cc2)cc(OC)c1OC 67.8 µM (inactive)
N#Cc1cc(Sc2ccc(N)c(C#N)c2)ccc1N 8.59 µM (inactive)

Short answer on COLO 205 for "O=C1c2ccccc2C(=O)c2c1nc1ccccc1c2-c1cncc(-c2c3c(nc4ccccc24)C(=O)c2ccccc2C3=O)c1" , GI50: 2.85 µM (inactive)

Response field GI50 (COLO 205) for item "S=C(S)NCNC(=S)S" : > 100 µM (inactive)

* * *

tested on: OVCAR-3; assay: NCI tumour cell line growth inhibition, 48 h
Activity calls are given as the source filed them. Rule as the data show it: active = GI50 up to about 1.1 µM and inactive = higher.
# valid calls are active, inactive; nothing else

Look over these answered cases.
Compound	Group
CC[C@]12C=CCN3CCC4(c5cc([C@@]6(C(=O)OC)CC7CN(CCc8c6[nH]c6ccccc86)C[C@@H]6CCCC[C@H]76)c(OC)cc5N(C)C4[C@](O)(C(=O)OC)C1OC(C)=O)[C@@H]32 (stereo partly specified)	active
Cc1cccc(C)c1NC(=O)CCCC(=O)C(C#N)c1ccc(Cl)cc1 (stereo unspecified)	inactive
CCCN1CC=C(c2cc(C(=O)OCC)[nH]c2-c2cc(C)no2)C1=O	inactive

Query string: Hi team, can someone confirm the assay call for "c1ccc(CCN2CCOCC2)nc1" ?
Result string: inactive

Query string: For O=C(Nc1ccn(C2CCC(COC(c3ccccc3)(c3ccccc3)c3ccccc3)O2)c(=O)n1)c1ccccc1 (stereo unspecified) , what call appears in the results of this test?
Result string: inactive

Query string: Assay result, entry "NCCOc1cccc(C2(N3CCCCC3)CCCCC2)c1" — outcome?
Result string: inactive

* * *

test system: OVCAR-8; experiment: NCI tumour cell line growth inhibition, 48 h
Activity calls are given as the source filed them. Rule as the data show it: active = GI50 up to about 1.1 µM and inactive = higher.
Outcomes you can answer with include only these: active, inactive

Answered examples (2):
Compound	Group
O=C1c2ccccc2N1C(=O)c1ccccc1[N+](=O)[O-]	inactive
O=C(O)CC(C(=O)O)c1ccccc1[N+](=O)[O-] (stereo not drawn)	inactive

Query string: What was the test verdict on O=C(O)C1CC(c2ccc(F)cc2)=Nc2ccc(F)cc2S1 (stereo not drawn) ?
Result string: inactive

Query string: Give the logged outcome of this assay for the following compound: "CCCCn1c2c(n(CCCC)c1=S)-c1c(n(CCCC)c(=S)n1CCCC)SSc1c(n(CCCC)c(=S)n1CCCC)-c1c(n(CCCC)c(=S)n1CCCC)SSc1c(n(CCCC)c(=S)n1CCCC)-c1c(n(CCCC)c(=S)n1CCCC)SS2"
Result string: inactive

* * *

tested on: M14; assay: NCI tumour cell line growth inhibition, 48 h
Calls of active or inactive are those of the source. Cut-off read from the data, not from the text of the source: active = GI50 up to about 1.1 µM and inactive = higher.
Your answer must be one of the following: label 1 (active), label 0 (inactive)

Molecule	Group
O=C(OCc1ccccc1CN1CCOCC1)c1cccc(Br)c1	label 0
COc1cc2c(/C=C3/C(=O)Nc4ccc(Cl)cc43)c(Cl)n(Cc3ccccc3)c2cc1C	label 0
c1ccc2c(c1)N=C(c1cccc3ccccc13)CC(c1ccc3c(c1)OCO3)S2 (stereo not given)	label 0
CC(C)NC(=O)OCc1c(COC(=O)NC(C)C)n(C)c2c1ccc1cc(Cl)c(Cl)cc12	label 0
N#CC(C#N)=C(N)/C(C#N)=C\c1ccnc2ccccc12	label 0
CC1OC(OC2C(OC(=O)[C@]34CCC(C)(C)C[C@H]3C3=CC[C@@H]5[C@@]6(C)CC[C@H](OC7OC(C(=O)O)C(O)C(O)C7O)C(C)(C)[C@@H]6CC[C@@]5(C)[C@]3(C)C[C@H]4O)OCC(O)C2O)C(O)C(OC2OCC(O)(CO)C2O)C1OC1OCC(O)C(O)C1O (stereo not given in full)	label 0

Query string: Please share the test call associated with "N=c1oc2ccc3ccccc3c2cc1-c1nc(O)c2ccccc2n1" .
Result string: label 0

Query string: GET /call?item= "CN(C)CCNc1ccc([N+](=O)[O-])c2nc3ccccc3c(N)c12" returns the recorded outcome of this test.
Result string: label 1

Query string: Per the assay record, what outcome was assigned to CCC1C(c2cc(OC)c(OC)c(OC)c2)c2cc3c(cc2OC1N1CCOCC1)OCO3 (stereo not given) ?
Result string: label 0

Query string: Please let me know the test result on file for "N#Cc1ccc(Nc2cnc3ccc(N)cc3n2)cc1" .
Result string: label 0

Query string: // param item: C=C1C(=O)OC2C(C)C3C=CC(=O)[C@@]3(C)C(OC(=O)/C(C)=C/C)C1[C@@H]2OC(C)=O (stereo not given in full) ; yields the recorded call
Result string: label 1

Query string: Outcome? "CC(=O)N1CCC2(C=Nc3ccccc32)CC1"
Result string: label 0

Query string: Look up the recorded call for "Cc1c2c(c(C)n1-c1ccccc1)C(=O)N(CCN1CCN(c3cccc(C(F)(F)F)c3)CC1)C2=O" in this test.
Result string: label 0

Query string: What is the recorded call for this molecule in the test? NNC(=O)C(=O)N/N=C1/CCCC1C(=O)CCC(=O)Nc1ccc(Cl)cc1 (stereo not given)
Result string: label 0

Query string: Recorded test outcome, item COc1ccc(-c2nc(-c3cnccn3)n(C3OC(CO)C(O)C(O)C3O)n2)cc1 (stereo not given)
Result string: label 0

Query string: Record request — test call for N#CC1=C(N)N(c2ccccc2)C(c2ccco2)C1(C#N)C#N (stereo not given)
Result string: label 0

Query string: Check the results log: what was the call for CCOC(=O)C1CCC/C1=N\NC(=N)N.Cc1cc(O)c(C(C)C)cc1S(=O)(=O)O (stereo not given) ?
Result string: label 0

Query string: Field: outcome | Entry: "CC(=O)N1C(=O)C(=O)c2cc(Cl)ccc21"
Result string: label 0

Query string: I would be grateful if you could indicate the recorded call for "N#Cc1c(SCc2ccccc2)nc(-c2ccccc2)[nH]c1=S" .
Result string: label 0

Query string: Record request — test call for "Cc1cc(Cl)ccc1OCC(=O)Nc1nc(N)nc(N)n1"
Result string: label 0

Query string: # lookup: test call for "C=C(C)[C@@H](C(=O)OC)N1C(=O)c2ccccc2C1=O"
Result string: label 0

* * *

system: HOP-62; test: NCI tumour cell line growth inhibition, 48 h
Active and inactive are the calls of the source. Cut-off read from the data, not from the text of the source: active = GI50 up to about 1.1 µM and inactive = higher.
Entry note: the call must match one of active, inactive

Compound	Group
Cc1ccc(NC(=O)C2C3CCC(O3)C2C(=O)O)cc1 (stereo not given)	inactive
c1ccc2c(c1)nc1n2C2CCC(C2)N1 (stereo not given)	inactive
Cc1nn(-c2ccccc2)c(-c2ccccc2[N+](=O)[O-])c1CC#N	inactive
O=C1c2ccccc2C(=O)c2c1nc1ccccc1c2-c1cncc(-c2c3c(nc4ccccc24)C(=O)c2ccccc2C3=O)c1	inactive
C=CC(Br)(CBr)CCC(Br)C(C)(C)Br (stereo not given)	inactive
Cc1ccnc2nc(-c3cccc(Cl)c3)cc(O)c12	active

Query string: Hi, sorry to bother you, what did the test record for "CCOC(=O)C(C)(C)Oc1ccc2c(-c3ccc(Cl)cc3)c(-c3ccc(Cl)cc3)c(=O)oc2c1" ?
Result string: inactive

Query string: Write down the call the test reported for this compound. Item: "Nc1c(C(=O)O)nnc2cc(Cl)ccc12"
Result string: inactive

Query string: Entry CCCCCCCCCCCCCCCCCC(=O)Nc1ccn(C2CCC(COP(=O)(O)O)O2)c(=O)n1 (stereo not given) : call = ?
Result string: inactive

Query string: Kindly provide the recorded test outcome for the following compound: "CC1=C(C)C(=O)C(C2=C(C3=CC(=O)C(C)=C(C)C3=O)C(=O)C(C)=C(C)C2=O)=CC1=O"
Result string: inactive

* * *

This section presents compounds with their documented GI50 values.
tested on: UO-31; test: NCI tumour cell line growth inhibition, 48 h
Calls of active or inactive are those of the source. No stated cut-off is given here; in the data, active = GI50 up to about 1.1 µM and inactive = higher.

# count of solved cases: 2
Compound	Reported
CC1=CC2=C(C#N)C(=O)OC2(C)C(c2ccccc2)C1 (stereo not drawn)	> 100 µM (inactive)
Cc1ccc2nc(/C=N/c3ccc(Cl)cc3)cc(C)c2c1	0.381 µM (active)

Then this compound:
Memo: "Cc1c(N2CCCC2)cc2c(c1NC(=O)c1ccccc1Cl)C(C)(C)CC2(C)C" , reported GI50: 13.2 µM (inactive)

* * *

tested on: SN12C; test: NCI tumour cell line growth inhibition, 48 h
Calls of active or inactive are those of the source. No stated cut-off is given here; in the data, active = GI50 up to about 1.1 µM and inactive = higher.
Quantity Name: GI50

// below: answered compounds
Compound	GI50
CC1(OCc2ccccc2)C(=O)N2C1N(C(=O)OCc1ccccc1)CC2(C)C (centres undefined)	> 100 µM (inactive)
CC1(C)O[C@@H](CP(c2cccc3ccccc23)c2cccc3ccccc23)[C@H](CP(c2cccc3ccccc23)c2cccc3ccccc23)O1	> 100 µM (inactive)
CCOC(=O)C(C)(C)Oc1ccc2c(-c3ccccc3)cc(=O)oc2c1	37 µM (inactive)
N#CC1=C(N)N(c2ccccc2)C(c2ccco2)C1(C#N)C#N (centres undefined)	30.3 µM (inactive)
C(=C\C(Sc1ccccc1)c1ccccc1)/NNC1=NN=C(c2ccccc2)C(c2ccccc2)N1 (centres undefined)	55 µM (inactive)

GI50 recorded for this compound, "N#Cc1ccc2oc3ccc(C#N)cc3c(=O)c2c1" , is > 100 µM (inactive)

Recorded GI50 (compound "CC(=O)/C(=N\O)C(=O)NCc1ccccc1" ): > 100 µM (inactive)

Data point: "CCCCn1c2c(n(CCCC)c1=S)-c1c(n(CCCC)c(=S)n1CCCC)SSc1c(n(CCCC)c(=S)n1CCCC)-c1c(n(CCCC)c(=S)n1CCCC)SSc1c(n(CCCC)c(=S)n1CCCC)-c1c(n(CCCC)c(=S)n1CCCC)SS2" ; GI50 = 2.8 µM (inactive)

// "N#Cc1cc([N+](=O)[O-])ccc1NC(=O)C(=O)Nn1c(S)nc2ccccc2c1=O" : GI50 value = > 100 µM (inactive)

Recorded result, "O=C(/C=C(\C(=O)c1cccs1)c1cccs1)c1ccc(C(=O)/C=C(\C(=O)c2cccs2)c2cccs2)cc1" , GI50: > 100 µM (inactive)

Reported GI50 for COc1cc2c3c4[n+](cc2c(OC)c1OC)CCC4CCC3 (centres undefined) was > 100 µM (inactive)
